B1: glmS ribozyme (parent)
chain: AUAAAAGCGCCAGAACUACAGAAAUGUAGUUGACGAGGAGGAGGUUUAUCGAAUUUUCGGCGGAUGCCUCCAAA

Variants of: B1
test: KM; higher = weaker cofactor use; RNA array
cond: with glucosamine-6-phosphate
Where KM equals or exceeds 1000 µM, the correct label is True; where it does not, the label is False.

Example entries begin here.
mutant-designation	group
A39C U65A	True
A15C U46C	True

Data request: Could you tell me if the measured KM of G44C C50A reaches 1000 µM or more?
Data returned: False

Data request: Assess whether reported KM for U45C U65A C67G sits at 1000 µM or higher.
Data returned: True

Data request: Determine whether measured KM meets or exceeds 1000 µM for A14G A15U G40U
Data returned: False

Data request: State whether the measured KM reaches 1000 µM, counting equality as reaching it, for A15G A52C
Data returned: True

Data request: Textbook exercise: given the entry U54G U65C , state whether its KM is greater than or equal to 1000 µM.
Data returned: True
